test: Stability in rat blood; assay type: in vitro ADME; settings: rat blood, 0.1 mM, 37° C.; read-out: Half-life (t1/2), Blood
OBSERVABLE: half-life at 100 µM (h)
Write the number in h without appending the unit.

half-life at 100 µM for `CCOC(=O)[C@@]1(OC(=O)C(Cl)Cl)CC[C@H]2[C@@H]3CCC4=CC(=O)C=C[C@]4(C)[C@H]3[C@@H](O)C[C@@]21C` ?
1.29

----------
system: forearm of a human volunteer; assay: Further human vasoconstriction testing, Method 2; type: in vivo; set-up: key: +: "positive" (pallor could be observed); -: "negative" (pallor could not be detected); settings: 4 Hours, 0.5 mM
OBSERVABLE: Vasoconstriction activity

- MOLECULE: "COC(=O)[C@@]1(OC(=O)CCl)[C@H](C)C[C@H]2[C@@H]3CCC4=CC(=O)C=C[C@]4(C)[C@@]3(F)[C@@H](O)C[C@@]21C [S]"
  Vasoconstriction activity: "-"
- MOLECULE: "COC(=O)[C@@]1(OC(=O)C(Cl)Cl)[C@H](C)C[C@H]2[C@@H]3CCC4=CC(=O)C=C[C@]4(C)[C@@]3(F)[C@@H](O)C[C@@]21C [Compound I]"
  Vasoconstriction activity: "+"
- MOLECULE: "CCOC(=O)[C@@]1(OC(=O)CCl)[C@H](C)C[C@H]2[C@@H]3CCC4=CC(=O)C=C[C@]4(C)[C@@]3(F)[C@@H](O)C[C@@]21C [T]"
  Vasoconstriction activity: "-"
- MOLECULE: "CCOC(=O)[C@@]1(OC(=O)C(Cl)Cl)[C@H](C)C[C@H]2[C@@H]3CCC4=CC(=O)C=C[C@]4(C)[C@@]3(F)[C@@H](O)C[C@@]21C [J]"
  Vasoconstriction activity: "-"
- MOLECULE: "C[C@@H]1C[C@H]2[C@@H]3CCC4=CC(=O)C=C[C@]4(C)[C@@]3(F)[C@@H](O)C[C@]2(C)[C@@]1(OC(=O)C(Cl)Cl)C(=O)OCCl [K]"
  Vasoconstriction activity: "-"

We next turn to a different molecule, shown below.
Vasoconstriction activity for CCCCC(=O)O[C@]1(C(=O)CO)[C@@H](C)C[C@H]2[C@@H]3CCC4=CC(=O)C=C[C@]4(C)[C@@]3(F)[C@@H](O)C[C@@]21C [Betamethasone 17-valerate, reference compound] ?
-
